inhibition: recorded values
Target: UniProt Q7ZJM1
Sequence (Q7ZJM1 as listed by the source): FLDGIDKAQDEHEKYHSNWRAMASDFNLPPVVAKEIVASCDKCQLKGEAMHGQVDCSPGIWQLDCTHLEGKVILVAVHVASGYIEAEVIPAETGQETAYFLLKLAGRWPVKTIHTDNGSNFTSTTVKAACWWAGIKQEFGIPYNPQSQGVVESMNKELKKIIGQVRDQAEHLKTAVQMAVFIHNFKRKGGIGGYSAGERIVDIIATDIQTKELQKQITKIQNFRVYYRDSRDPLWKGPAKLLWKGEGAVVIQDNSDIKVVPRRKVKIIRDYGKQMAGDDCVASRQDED
Assay: Percentage inhibition was obtained by performing in vitro assay on purified recombinant integrase by strand transfer method at 100 micro g/mL (experiment 2)

| compound | inhibition, % |
| --- | --- |
| O=C(NCCO)c1cc(Cl)ccc1O | 13.4 |
| CCN(CC)CCCC(C)Nc1ccnc2ccc(Cl)nc12 (stereo not drawn) | 56.6 |
| O=C(NCO)c1ccccc1O | 55.2 |
